Data origin, for the record: the supplement of paper PMC9732359

Listing of entries alongside the reported protein stability index.
test_name: protein stability index of a GFP-peptide fusion (yeast GPS) (PSI 1-4); higher = more stable; sorted into four equal gates, so the index is relative within each strain
settings: doa10∆
experimental_readout: protein stability index

{"columns": ["monomer_sequence", "reported_measurement"],
 "data": [
  ["AKGKSGVQTAYIDYSSK [RRP40]", 2.54],
  ["HIFQVEYALEAVKRGTC [PRE6]", 2.76],
  ["RVKDPQWLIMLGICTHL [RIP1]", 2.62],
  ["QLEDESSRLEFVKGISR [YML103C/NUP188]", 3.45],
  ["ALVAGIERYPLKVTKKH [RPL27A]", 2.17],
  ["LKVRKGHIAKLMATEYQ [RPB2]", 2.52],
  ["FKELCYENKDNLTAGII [PRE3]", 2.95],
  ["IEHNLRVISEYYSRITL [RPN5]", 2.63],
  ["VLLVEKYGAEYDLVDNK [NAS6]", 1.9],
  ["AEVNGGDDEATEIISTL [BRR2]", 3.33],
  ["VVEEFTPVVLATPIPEE [RPS5]", 2.69],
  ["GDYGEEEDADQEESFSL [SRB8]", 3.76],
  ["LRLGRGINPNTFRIFHN [YDL088C/ASM4]", 2.39],
  ["VNTMGTGGQTIDNGTGR [MED6]", 3.27],
  ["FGHIMEDFQVLRLGRGI [YDL088C/ASM4]", 3.04],
  ["GQLLKDHLIIEPEEEKS [ARP9]", 2.15],
  ["GRRISENGQRDLDRIAA [RPS19A]", 3.76],
  ["MTVTKVSLPEGSFKRVK [BRR2]", 2.92],
  ["DKKHFNNKNKRVTGAGG [RPC53]", 3.15],
  ["IGTINSIVHINSQERVQ [SIR2]", 2.13],
  ["YRVTLESILQMNQGEGE [RPC34]", 2.94],
  ["RMLLNLCKSATTKMWPT [BRR2]", 1.47],
  ["YKKIPLLGPTLEDHTPP [QCR10]", 2.34],
  ["GEMVGVLAAQSIGEPAT [RPO21]", 2.36],
  ["HKSGKLSVKIGNVVMDI [RPC53]", 1.53],
  ["TSTKPSFSFGAPESMKS [YOR098C/NUP1]", 2.97],
  ["SLRRQVKKLEIQQHARY [RPL43A]", 2.75],
  ["SKTSENKVSNTVSPTQD [SIR2]", 2.98],
  ["QEGKISSVYRLKFAVQV [RPL26A]", 3.09],
  ["YMEKGTQLDDLQHELMI [YML103C/NUP188]", 2.62],
  ["FLGYKAGMTTIVRDLDR [RPL3]", 2.48],
  ["MLKQHLFKYQGHIGAYL [PUP1]", 2.17],
  ["LFRAIYLYCLDNNITEM [YCG1]", 2.08],
  ["LNFSTTAPANTTDANGS [MED2]", 2.06],
  ["EVYMRYRNFMVNSYRLN [SWI3]", 2.19],
  ["SPAVKKLLQLAGVEDVY [RPS2]", 1.58],
  ["KSMSILNSFVNDIFERI [HTB1]", 2.73],
  ["HEIYGSMPLEQLIPIIL [SRB4]", 2.06],
  ["VSDSNDDVRRAAVIALG [RPN2]", 3.26],
  ["LALENGEITKTENEKFI [NUT1]", 3.28],
  ["CFKPMSLTSKRLISQSL [RIP1]", 2.64],
  ["QKVLNAHRQRAMEARSS [SMC4]", 1.95],
  ["ESNVNDSDMLTKSHNTV [NUT1]", 3.08],
  ["MVHREFLKLANGGKFSK [RGR1]", 3.22],
  ["TGWNAKTYGISDDIISQ [FAS2]", 1.99],
  ["LGNVIVPNILSLDMNSM [NUT1]", 2.16],
  ["KYAQDGAGIERELARIK [RPL3]", 3.54],
  ["NILLRERDSYKLLASTE [YIL149C/MLP2]", 2.59],
  ["TSKTVSNQFKRSLATAV [COR1]", 2.47],
  ["KHKKKHLKHENANDETT [RPB4]", 2.92],
  ["GPHKGKAPRILSTGRKF [RPL18A]", 2.81],
  ["IQELEDQRDELLEQKKS [ITC1]", 3.21],
  ["DQSNVQYYLSVLNQQLP [BRR2]", 2.96],
  ["FVFQTVFDTAITSWYEN [QCR9]", 1.66],
  ["DFKTDVDEPMTSAVELG [YJL039C/NUP192]", 2.17],
  ["AIPNPEDVVAISSRTFG [RPS0A]", 3.22],
  ["NLSLYEATAASHERFFL [CSN12]", 2.35],
  ["AGKFPTPVSHNDDLYGK [RPL1A]", 2.26],
  ["KHAEFDLSLLGYCDDIA [SIR2]", 3],
  ["INQINEAHPTKVKNFGV [RPL20A]", 3.04]
]}
